Origin of measurements: patent US20250025454A1

experimental protocol: Pharmacokinetics (plasma, lung at 24 h) after single oral dosing in male Sprague-Dawley rats
run parameters: male, Sprague-Dawley, rat, in vivo, po, 750 mg/kg, tmax, male SD rat plasma, single oral 750 mg/kg (Group 3), individual rats 456, 457, 458
recorded metric: Tmax (h)
Record the value in h, omitting the unit from your answer.

Any idea what Tmax was measured for Cc1c(-c2ccc(O)cc2)n(Cc2ccc(OCCN3CCCCC3)cc2)c2ccc(O)cc12 [Pipendoxifene] ? 8

---

experimental protocol: Pharmacokinetics (plasma, lung at 24 h) after single oral dosing in male Sprague-Dawley rats
run parameters: male, Sprague-Dawley, rat, in vivo, po, 500 mg/kg, tmax, male SD rat plasma, single oral 500 mg/kg (Group 2), mean
recorded metric: Tmax (h)
State just the number; it will be interpreted in h.

What value of Tmax has been recorded for this entry: Cc1c(-c2ccc(O)cc2)n(Cc2ccc(OCCN3CCCCC3)cc2)c2ccc(O)cc12 [Pipendoxifene] 6.67
